The reported numbers originate from patent US10760110B2.

- System: K. pneumoniae NVT1001 and its ΔompK35/36 and/or ΔramR mutants
- ASSAY_DETAILS: Etest MIC, OmpK35/36 loss and AcrAB-TolC overexpression (ΔramR) strains (Table 6)
- Type: cell-based, Klebsiella pneumoniae
- ASSAY_CONTEXT: Klebsiella pneumoniae, Δ35/36, ΔompK35/36 mutant
Reported MIC values are given for each entry in this list.

Asked: State the recorded MIC for this entry: C[C@@H](O)[C@H]1C(=O)N2C(C(=O)O)=C(S[C@@H]3CN[C@H](CNS(N)(=O)=O)C3)[C@H](C)[C@H]12
Given back: 0.125 µg/mL

Asked: Quick one: MIC for CC1COc2c(N3CCN(C)CC3)c(F)cc3c(=O)c(C(=O)O)cn1c23 (stereo not shown) ?
Given back: 0.25 µg/mL

Asked: Any idea what its MIC is? The molecule is CN(C)c1ccc(O)c2c1C[C@H]1C[C@H]3[C@H](N(C)C)C(O)=C(C(N)=O)C(=O)[C@@]3(O)C(O)=C1C2=O
Given back: 4 µg/mL

Asked: Can you look up the measured MIC of CC(C)(O/N=C(\C(=O)N[C@@H]1C(=O)N2C(C(=O)[O-])=C(C[n+]3ccccc3)CS[C@H]12)c1csc(N)n1)C(=O)O for me?
Given back: 1 µg/mL

Asked: Looking for the measured MIC of O=C1CN(/N=C/c2ccc([N+](=O)[O-])o2)C(=O)N1 , can you help?
Given back: > 512 µg/mL

Asked: Consider the molecule shown here: NC[C@H]1O[C@H](O[C@H]2[C@H](O)[C@@H](O[C@H]3O[C@H](CO)[C@@H](O)[C@H](N)[C@H]3O)[C@H](N)C[C@@H]2N)[C@H](O)[C@@H](O)[C@@H]1O What is its recorded MIC?
Given back: 4 µg/mL

Asked: Fill in: MIC of Cc1cc(NS(=O)(=O)c2ccc(N)cc2)no1 is ___
Given back: > 1020 µg/mL
